Quick list: IC50 per entry.
- tested target: F1F0-ATPase (Bos taurus, UniProt P13621)
- Construct: from tissue
- test summary: Inhibition of F1F0-ATPase activity in synthesizing ATP
- Format: biochemical
- condition context: inhibition of ATP synthesis; read-out: ATP Syn IC50

These solved cases illustrate the format of a correct answer.
compound	IC50
N#Cc1ccccc1S(=O)(=O)Nc1cccc(NC(=NC(=O)c2ccc(Cl)cc2)Nc2cc(F)cc(Cl)c2)n1	< 10 µM
O=C(/N=C(/Nc1cccc(O)n1)NC1CC1)c1ccc(F)c(F)c1	> 10 µM
O=C(/N=C(\Nc1cccc(O)n1)NC1CCCC1)c1ccc(Cl)cc1	< 10 µM
O=C(/N=C(\Nc1cccc(O)n1)NC1CCCOC1)c1ccc(C(F)(F)F)cc1 (stereo not drawn)	< 10 µM
O=C(/N=C(\Nc1cccc(C(F)(F)F)c1)Nc1cccc(O)n1)c1ccc(C(F)(F)F)cc1	< 10 µM
O=C(/N=C(\Nc1cccc(O)n1)NC1CCCC1)c1ccc(C(F)(F)F)cc1	< 10 µM

Let us examine a further case.
Task item: For F1F0-ATPase (Bos taurus, UniProt P13621), provide IC50 of O=C(/N=C(/Nc1cccc(C(F)(F)F)c1)Nc1cccc(O)n1)c1ccc(Cl)cc1 please.
Reply: < 10 µM

---

F1F0-ATPase (Bos taurus) measurements of IC50, listed per entry.

The examples below pair each entry with its known result.
compound	tested target	result value
O=C(/N=C(\Nc1cccc(O)n1)NC1CCCOC1)c1ccc(F)c(F)c1 (centres unmarked) [Compound A-99]	F1F0-ATPase (Bos taurus)	> 10 µM
O=C(/N=C(/NCc1ccc(Cl)cc1F)Nc1cccc(NS(=O)(=O)c2ccccn2)n1)c1ccc(Cl)cc1 [Compound A-137]	F1F0-ATPase (Bos taurus)	< 10 µM

Task item: Entry O=C(/N=C(/NCc1cccc(C(F)(F)F)c1)Nc1cccc(O)n1)c1ccc(F)c(F)c1 [Compound A-74] , system F1F0-ATPase (Bos taurus): what IC50 was measured?
Reply: < 10 µM

---

Recorded pIC50 values for a group of molecules are listed next.
- tested target: F1F0-ATPase (Bos taurus, UniProt P13621)
pIC50: −log10 of the molar value.

Sample answers from the record:
molecule	value kind	result value
O=C(/N=C(/NCc1ccc(F)c(Cl)c1)Nc1cccc(O)n1)c1ccc(F)c(F)c1	pIC50	> 5.00
CC1CCC(N/C(=N/C(=O)c2ccc(C(F)(F)F)cc2)Nc2cccc(O)n2)CC1 (centres unmarked)	pIC50	> 5.00

Task item: F1F0-ATPase (Bos taurus, UniProt P13621) / pIC50 / COCC(C)N/C(=N/C(=O)c1ccc(Cl)cc1)Nc1cccc(O)n1 (centres unmarked) : value?
Reply: < 5.00

Task item: Which measured pIC50 belongs to O=C(/N=C(/NCc1ccc(Cl)cc1)Nc1cccc(O)n1)c1ccc(Cl)cc1 , tested on F1F0-ATPase (Bos taurus, UniProt P13621)?
Reply: > 5.00

Task item: F1F0-ATPase (Bos taurus, UniProt P13621) / pIC50 / O=C(/N=C(/NCc1cccc(Cl)c1)Nc1cccc(O)n1)c1ccc(Cl)cc1 : value?
Reply: > 5.00

Task item: Lab note: need pIC50 for CS(=O)(=O)Nc1cccc(N/C(=N\C(=O)c2ccc(C(F)(F)F)cc2)NCC(F)(F)F)n1 on F1F0-ATPase (Bos taurus, UniProt P13621), anyone have it?
Reply: > 5.00

Task item: Enter reported pIC50 observed with F1F0-ATPase (Bos taurus, UniProt P13621) for O=C(N/C(=N\c1cccc(O)n1)Nc1ccc(F)c(Cl)c1)c1ccc(F)c(F)c1
Reply: < 5.00

Data origin, for the record: patent US9370507B2
